- Test name: BSK_3C_Vis: BioMAP Diversity Plus: 3C Assay for Morphology Visualization (AID 2283025);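 further: fitted both ways so gain or loss versus DMSO counts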
- Experimental context: primary human endothelial cells (HUVEC)
- Experimental: BSK_3C is a cell-based, multiplexed-readout assay that uses umbilical vein endothelium, a human vascular primary cell, with measurements taken at 24 hours after chemical dosing in a 96-well plate.BSK_3C_Vis is an assay component measured in the BSK_3C assay. It measures NA related to cell morphology using light microscopy technology.Data from the assay component BSK_3C_Vis was analyzed into 1 assay endpoint. […]
Active and inactive are the calls of the source. How the source made its calls: active means hit-call score of the fitted dose curve at least 0.9, where 1 is the maximum; inactive means score below 0.9.
Parameter call: string, one of TRUE (active), FALSE (inactive)

Previously resolved entries follow.
Compound	Class
OB(O)O	FALSE
CCSC(=O)N(CC(C)C)CC(C)C	FALSE
CCCCOCCOCCOCc1cc2c(cc1CCC)OCO2	FALSE
CN(C)C(=O)Nc1ccc(Cl)c(Cl)c1	FALSE

Consider now this further compound.
Test call for this compound, please: CCCCCCC(C)OC(=O)COc1nc(F)c(Cl)c(N)c1Cl (stereo not given)
TRUE

====

- Read-out: Glutamate-cysteine ligase regulatory (GCLM), GCLM (gene 2730)
- Test name: LTEA_HepaRG_GCLM: Life Technologies and Expression Analysis (LTEA) Assay for Glutamate-cysteine ligase regulatory (GCLM) using HepaRG (AID 2283500)
- Experimental context: mRNA level, 48 h; actives raise or lower the signal
Active and inactive are the calls of the source. Rule for the calls: active = hit-call score of the fitted dose curve at least 0.9, where 1 is the maximum; inactive = score below 0.9.
Parameter call: string, one of active, inactive

Compound	Class
CC1(C)C(C=C(Cl)Cl)C1C(=O)OCc1cccc(Oc2ccccc2)c1 (centres undefined)	inactive

Test call for this compound, please: CCOC(=O)c1ccc(O)cc1
inactive

Test call for this compound, please: C=CCOC(Cn1ccnc1)c1ccc(Cl)cc1Cl (centres undefined)
inactive

Test call for this compound, please: CC(=O)[C@H]1CC[C@H]2[C@@H]3CCC4=CC(=O)CC[C@]4(C)[C@H]3CC[C@]12C
inactive

Test call for this compound, please: C#CCOC(=O)[C@@H](C)Oc1ccc(Oc2ncc(Cl)cc2F)cc1
inactive

Test call for this compound, please: CCOC(=O)NCCOc1ccc(Oc2ccccc2)cc1
active

Test call for this compound, please: COC(=O)c1ccccc1C(=O)O
inactive

Test call for this compound, please: CCSC(=O)N(CC(C)C)CC(C)C
inactive

Test call for this compound, please: O=C(O)c1ccccc1
inactive

====

- Test name: STM_H9_CystineISnorm_perc: Stemina devTOX quickPredict H9 human embryonic stem cell (hESC)-based Assay for Cystine (CYSS) Metabolite Biomarker, Normalized (AID 2283713)
Calls of active or inactive are those of the source. Rule for the calls: active = hit-call score of the fitted dose curve at least 0.9, where 1 is the maximum; inactive = score below 0.9.
Parameter call: string, one of active, inactive

Molecule	Class
CCOC(=O)C(C)Oc1ccc(Oc2cnc3cc(Cl)ccc3n2)cc1 (centres undefined)	active
Cc1nn(C)c(Oc2ccccc2)c1C=NOCc1ccc(C(=O)OC(C)(C)C)cc1	active
COC(=O)CSc1cc(N=c2sc(=O)n3n2CCCC3)c(F)cc1Cl	active

Consider now this further molecule.
Test call for this molecule, please: CCSC(=O)N(CC(C)C)CC(C)C
inactive

====

- Read-out: E-selectin (Homo sapiens) (UniProt P16581)
- Sequence (P16581 whole entry, looked up): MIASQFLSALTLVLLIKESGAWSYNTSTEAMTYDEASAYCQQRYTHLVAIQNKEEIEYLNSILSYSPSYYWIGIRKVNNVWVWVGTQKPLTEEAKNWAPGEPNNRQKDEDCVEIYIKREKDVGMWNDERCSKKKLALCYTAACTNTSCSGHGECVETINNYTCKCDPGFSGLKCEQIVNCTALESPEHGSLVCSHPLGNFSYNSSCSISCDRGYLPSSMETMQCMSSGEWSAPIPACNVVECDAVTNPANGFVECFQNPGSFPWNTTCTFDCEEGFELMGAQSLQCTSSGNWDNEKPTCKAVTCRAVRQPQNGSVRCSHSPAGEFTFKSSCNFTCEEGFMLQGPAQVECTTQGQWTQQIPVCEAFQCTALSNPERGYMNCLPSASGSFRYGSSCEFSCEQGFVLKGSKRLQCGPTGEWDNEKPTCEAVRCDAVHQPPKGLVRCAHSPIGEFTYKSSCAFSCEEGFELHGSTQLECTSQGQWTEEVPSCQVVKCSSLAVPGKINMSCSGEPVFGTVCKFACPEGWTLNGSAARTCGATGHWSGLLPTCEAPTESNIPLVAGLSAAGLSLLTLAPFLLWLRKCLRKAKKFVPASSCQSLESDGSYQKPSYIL
- Test name: BSK_SAg_Eselectin: BioMAP Diversity Plus: SAg Assay for Eselectin Biomarker Activity (AID 2283091)
- Experimental context: primary human HUVEC with PBMC; actives raise or lower the signal
Calls of active or inactive are those of the source. How the source made its calls: active means hit-call score of the fitted dose curve at least 0.9, where 1 is the maximum; inactive means score below 0.9.
Parameter call: string, one of 1 (yes) (active), 0 (no) (inactive)

Previously resolved entries follow.
Compound	Class
CCSC(=O)N(CC(C)C)CC(C)C	0 (no)
CCC(C)OC(=O)N1CCCCC1CCO (stereo unspecified)	0 (no)

Test call for this compound, please: COC(=O)c1ccccc1S(=O)(=O)NC(=O)Nc1nc(OC(F)F)cc(OC(F)F)n1
0 (no)

Test call for this compound, please: CCOC(=O)[C@H](C)Oc1ccc(Oc2nc3ccc(Cl)cc3o2)cc1
0 (no)

Test call for this compound, please: COC(=O)c1cccc(C)c1S(=O)(=O)NC(=O)Nc1nc(OCC(F)(F)F)nc(N(C)C)n1
0 (no)

Test call for this compound, please: CC(=O)S[C@@H]1CC2=CC(=O)CC[C@]2(C)[C@H]2CC[C@@]3(C)[C@@H](CC[C@@]34CCC(=O)O4)[C@H]12
1 (yes)

Test call for this compound, please: CCN(CC)C(=O)c1cccc(C)c1
0 (no)

Test call for this compound, please: CC(C)CCCCCCc1ccc(O)cc1
1 (yes)
